Data origin: patent US20220162261A1

molecular target: T1, human α4β7 integrin on cells (human, UniProt P13612 34-1032; P26010 20-798); experiment: RPMI8866 cell adhesion to MAdCAM-1
T1 construct: whole, on cells; also called α4β7 cell (Hu); RPMI8866 cells
pIC50: −log10 of the molar value. Bridge positions count the residues as written; N and C are the ends. Square brackets hold non-standard residues; d marks the D form. * marks the point of attachment. Phe(4-tBu) = CC(C)(C)c1ccc(C[C@H](N)C(=O)O)cc1; NMeR = CN[C@@H](CCCNC(=N)N)C(=O)O; Palmitoyl = CCCCCCCCCCCCCCCC(=O)*; Tic = O=C(O)[C@@H]1Cc2ccccc2CN1; β3hE = N[C@@H](CCC(=O)O)CC(=O)O; DIG = diglycolic acid (linker); Pen = CC(C)(S)[C@H](N)C(=O)O
property_label: pIC50

binder | pIC50
Ac-[Pen][NMeR]SDTLC[Tic][dE][dK](DIG)-NH2 (disulfide 1-7; also: homodimer (…)2 DIG: the two subunits are joined through the K10 NZ by the DIG linker) [SEQ ID NO: 93] | < 6.30
Palmitoyl-[Pen][NMeR]SDTL[Pen][Phe(4-tBu)][β3hE][dK]-NH2 (disulfide 1-7) [SEQ ID NO: 178] | < 6.00
Ac-[dK]C[NMeR]SDTLCW[dK]-NH2 (disulfide 2-8 (inferred); also: dimer linked by DIG, attachment not given here) [SEQ ID NO: 4] | < 8.00

Lab note: next binder to report on.
Query :: Quick one: pIC50 of Ac-[Pen][NMeR]SDTL[Pen]W[dW][dK]-NH2 (disulfide 1-7; not fully specified (residue 10); printed as (Ac Pen N-Me-R S D T L Pen W w k NH2)2 DIG, disulfide Pen-Pen; also: homodimer: two subunits joined by DIG linker) [SEQ ID NO: 110] ?
Result :: < 8.00
